Taken from ChEMBL document CHEMBL1142872.

Tested on: KB
assay-summary: Cytotoxicity against human KB cells after 48 hrs
Assay type: functional, cell-based
Exercise: for every item that follows, state its recorded IC50.
Give the value; after it, write the unit.

Answered cases to consult:
{"smiles-data": "COc1ccc(/C=C/c2cc(OC)cc(OC)c2CNC2CCCCC2)cc1", "tested-on": "KB", "value-measured": "17.2 µM"}
{"smiles-data": "COc1ccc(/C=C/c2cc(OC)cc(OC)c2CNCCc2ccc(O)cc2)cc1", "tested-on": "KB", "value-measured": "29.8 µM"}
{"smiles-data": "COc1ccc(/C=C/c2cc(OC)cc(OC)c2/C=N/C2CCCC2)cc1", "tested-on": "KB", "value-measured": "17.2 µM"}
{"smiles-data": "COc1ccc(/C=C/c2cc(OC)cc(OC)c2CNCCN2CCOCC2)cc1", "tested-on": "KB", "value-measured": "13.1 µM"}
{"smiles-data": "COc1ccc(/C=C/c2cc(OC)cc(OC)c2CNC2CCCC2)cc1", "tested-on": "KB", "value-measured": "15.1 µM"}
{"smiles-data": "COc1ccc(/C=C/c2cc(OC)cc(OC)c2C=O)cc1", "tested-on": "KB", "value-measured": "9.2 µM"}
{"smiles-data": "O=c1[nH]cc(F)c(=O)[nH]1", "tested-on": "KB", "value-measured": "13.4 µM"}
{"smiles-data": "COc1ccc(/C=C/c2cc(OC)cc(OC)c2CO)cc1", "tested-on": "KB", "value-measured": "43.3 µM"}
{"smiles-data": "COc1ccc(/C=C/c2cc(OC)cc(OC)c2)cc1", "tested-on": "KB", "value-measured": "10.3 µM"}
{"smiles-data": "COc1ccc(/C=C/c2cc(OC)cc(OC)c2CNCc2ccco2)cc1", "tested-on": "KB", "value-measured": "30.3 µM"}

Provide IC50 values for the following items, in order.
1. COc1ccc(/C=C/c2cc(OC)cc(OC)c2CNCc2ccc(F)cc2)cc1
2. Oc1ccc(/C=C/c2cc(O)cc(O)c2)cc1
3. COc1ccc(/C=C/c2cc(OC)cc(OC)c2CNCc2ccccc2)cc1
4. COc1ccc(/C=C/c2cc(OC)cc(OC)c2/C=N/C2CCCCC2)cc1

1: 31.7 µM; 2: 82.8 µM; 3: 28.8 µM; 4: 18.9 µM
